PROCEDURE_SUMMARY: Permeability of the compound by PAMPA analysis
Type: ADME
MEASUREMENT_SETUP: read-out: permeability
MEASURED_ENDPOINT: Papp (×10⁻⁶ cm/s)

Example results:
MOLECULE	Papp (×10⁻⁶ cm/s)
O=C(O)C1CCN(c2ccc3c(=O)c4c(F)ccc(Cl)c4oc3c2)C1 (stereo not drawn)	1.83
Clc1cccc2c1Oc1cc(N3CCCC3)ccc1C2	0.36
O=c1c2ccc(N3CCCCC3)cc2oc2c(Cl)cccc12	0.49
CN1CCN(c2ccc3c(=O)c4cccc(F)c4oc3c2)CC1	0.08
Cc1ccc(Cl)c2oc3cc(N4CCC(C(=O)O)C4)ccc3c(=O)c12 (stereo not drawn)	0.59

[1] O=c1c2ccc(N3CCC(O)C3)cc2oc2c(F)cccc12 (stereo not drawn)
[2] CCN(CC)c1ccc2c(=O)c3cccc(Cl)c3oc2c1
[3] O=C(O)C1CCCN1c1ccc2c(=O)c3cccc(Cl)c3oc2c1 (stereo not drawn)
[4] O=c1c2ccc(N3CCCC3)cc2oc2c(Cl)cccc12
Q. Exam item: list the entries in increasing order of Papp. Response format: the labels, sorted as the prompt asks.
A. 4, 2, 1, 3
(4: 0.24 ×10⁻⁶ cm/s, 2: 0.54 ×10⁻⁶ cm/s, 1: 1.49 ×10⁻⁶ cm/s, 3: 2.79 ×10⁻⁶ cm/s)

[A] O=C(O)C1CCN(c2ccc3c(=O)c4c(Cl)ccc(Cl)c4oc3c2)C1 (stereo not drawn)
[B] O=C(O)C1CCN(c2ccc3c(=O)c4c(Cl)ccc(Cl)c4oc3c2)C1 (single isomer, unassigned)
Q. Between A and B , which one shows the smaller Papp number? Identify your pick by its label.
A. B

Cited source for all entries: ChEMBL document CHEMBL5137099
